Field: growth. Provide a value for each of the compounds that follow.
- Test system: HCC-2998 colon
- experiment description: NCI-60 one-dose screen, 48 h (100 = growth as untreated, 0 = no growth, -100 = all killed)
- measurement setup: 10 µM unless noted
This is part of a sample that, as a whole, favours compounds with a hit. Of some 83,000 tested, about 20% had one in any assay. Calls of active or inactive are those of the source. The calls were made as follows: active = growth percent below 10; inactive = the rest.

[ask] Can you look up the measured growth of CC1OC(n2c3ccccc3c3c4c(c5c6ccccc6[nH]c5c32)C(=O)N(CCN[C@@H]2CCC[C@H]2N)C4=O)CC(O)C1O (stereo not given in full) for me?
[reply] -9.5% (active)

[ask] Fill in the blank: the reported growth of CCn1cc(/C=C2\Oc3cc(OCC#N)ccc3C2=O)c2cc(OC)ccc21 is ____.
[reply] 55.6% (inactive)

[ask] Dear colleague, I am looking for the recorded growth of the following compound: COc1cc(C(=O)NNC(=O)c2ccccc2C(=O)O)cc(OC)c1OC
[reply] 68.5% (inactive)

[ask] Requested read-out: growth. Entry: Cc1c(C(C)(C)C)cc(C(C)(C)C)c2c1CN(C)CO2
[reply] 101% (inactive)

[ask] Given the compound O=C(NCCNc1nccc(-c2c(-c3cccc(O)c3)nc3sccn23)n1)c1ccccc1O , what is its reported growth?
[reply] 81% (inactive)

[ask] For the compound COC(=O)Nc1nc2ccc(Sc3ccccc3)cc2[nH]1 , what growth is on record?
[reply] 0.2% (active)

[ask] Entry under review: CCn1c(SCC(=O)c2ccc(Br)cc2)nnc1-c1cc2c([nH]c3ccccc32)c(-c2cccc(O)c2)n1 . Reported growth?
[reply] 98.4% (inactive)

[ask] I am curious: what growth value has been reported for CC(C)NCC(O)COc1ccc(CC(N)=O)cc1 (stereo not given) ?
[reply] 106% (inactive)

[ask] # growth lookup, item Cc1ccc2[nH]c3nc4cccnc4c(C)c3c2c1
[reply] 92.7% (inactive)

[ask] Data request, read-out growth, for CC(C)(C)OC(=O)NCc1cccc(N=C=S)c1
[reply] 57% (inactive)
